Tested on: LXRa:RXRa (NR concentration 270 nM, RXRa partner concentration 90 nM)
Assay: PBM binding z-score (relative to random genomic background probes); higher = stronger binding; sequences stand for … in GC…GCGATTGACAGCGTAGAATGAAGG
metricName: PBM binding z-score

{"chainSequence": "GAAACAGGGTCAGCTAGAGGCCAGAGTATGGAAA", "metricName": "PBM binding z-score", "readoutValue": 2.78}
{"chainSequence": "TAGCCTAGTTCATGGGCCAGTATACCACGCGAAC", "metricName": "PBM binding z-score", "readoutValue": 0.504}
{"chainSequence": "CCAGACAGGTGTGAAGGTAACTCAGCCTCGATTA", "metricName": "PBM binding z-score", "readoutValue": -0.378}
{"chainSequence": "CGTCCAAGGTTAGAGAGGTCAGTGAATGCCGAGT", "metricName": "PBM binding z-score", "readoutValue": 3.01}
{"chainSequence": "AGTCAAAGTTCACAAGGTAACGTAAGATTCAGCT", "metricName": "PBM binding z-score", "readoutValue": 5.7}
{"chainSequence": "TCTGCTAGGTCAACGATGGTCAGCAAATCTGCTA", "metricName": "PBM binding z-score", "readoutValue": 2.48}

====

Test system: PPARg:RXRa 90nM:30nM, anti-RXR (NR concentration 90 nM, RXRa partner concentration 30 nM)
Test: PBM binding z-score (relative to random genomic background probes); higher = stronger binding; sequences stand for … in GC…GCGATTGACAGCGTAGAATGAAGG
Listed sequences paired with reported PBM binding z-score

{"chainSequence": "CCTACTGGGCCATCCAGAGGTCATTGATCATATG", "PBM binding z-score": 2.2}
{"chainSequence": "TCTTGTAGATCAAAGGTTAACAAAGCCGAAGCCT", "PBM binding z-score": 9.81}
{"chainSequence": "TCATATAGGTAATACAAGTGAAAGTCGGCATCTA", "PBM binding z-score": 3.28}
{"chainSequence": "CGAACTAGGTAAGAACAGGACAGTGAAGGATGAT", "PBM binding z-score": 0.273}
{"chainSequence": "CCGACTGGGGCATACGGTTACCATAAGCCAGCCC", "PBM binding z-score": 1.13}
{"chainSequence": "TGAATGAGGTTATAAGTTCAGGGAACGTTGCAAA", "PBM binding z-score": 2.71}
{"chainSequence": "TTTAGCAGGCCAGAGGGTCACTCAAGAGGTACGG", "PBM binding z-score": 2.42}
{"chainSequence": "TCTAGTTGGTCAAGGGTCACACACTCGAAATGCG", "PBM binding z-score": 9.97}
{"chainSequence": "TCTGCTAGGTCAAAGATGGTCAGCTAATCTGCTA", "PBM binding z-score": 3.76}
{"chainSequence": "CGAACTAGGTCATCCTGGACAGTGAATACATTGA", "PBM binding z-score": 5.92}
{"chainSequence": "ATCGAAAGGTCGAAGGTAAGTATACCCACCCGAA", "PBM binding z-score": 2.86}
{"chainSequence": "CGAACTTGGTCATCCAGGACAGTGAATACATTGA", "PBM binding z-score": -0.228}

====

System: PPARg:RXRa (NR concentration 180 nM, RXRa partner concentration 90 nM)
Test: PBM binding z-score (relative to random genomic background probes); higher = stronger binding; sequences stand for … in GC…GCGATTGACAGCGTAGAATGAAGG
A collection of sequences and their measured PBM binding z-score

{"chainSequence": "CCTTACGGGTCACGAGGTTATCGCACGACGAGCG", "PBM binding z-score": 7.31}
{"chainSequence": "AGATGTAGGTTATCGGGTCATTCAGTTTGCGCAT", "PBM binding z-score": 6.25}
{"chainSequence": "CGTCCAAGGTCAGCAGGTCAGGGAAAGCGACGTG", "PBM binding z-score": 4.23}
{"chainSequence": "AATACAGGGTCATCGTAGGCCAGCGTACGCACAG", "PBM binding z-score": 6.7}
{"chainSequence": "AACTCTAGGTAAGACTCAGTTCAGTGAAGAACGC", "PBM binding z-score": 0.00417}
{"chainSequence": "ACAGACAGATGAGTGAAGGTAACTCAGCTGGACG", "PBM binding z-score": 0.883}
{"chainSequence": "AGGACGAGGGCACGCTGAGTTGATAGCAGAGTAG", "PBM binding z-score": 1.2}
{"chainSequence": "ATCTCTAGGTAAAGTTAGTTCAGTGAATGCAAAT", "PBM binding z-score": 0.555}
{"chainSequence": "GAATATAGGTAATACAAGGTGAAAGTCCGATTGT", "PBM binding z-score": 3.39}
{"chainSequence": "CGTCCAAGGACATAGGAGGTCAGTGAAGACAGAT", "PBM binding z-score": 0.76}
{"chainSequence": "GCGACTGGGGCAAAGCAGGTTACCAAAAGGTTGG", "PBM binding z-score": 1.11}
{"chainSequence": "GCTTACGGGTCAAAGGTGATAGCATGAATAGAAT", "PBM binding z-score": 10.2}
{"chainSequence": "CCGAGTAGGTTATGGAGCATTCAGGCAACGGTGA", "PBM binding z-score": 1.36}
{"chainSequence": "AGTCCAAGTTCATCTAGGTAACGTAAGATATGCT", "PBM binding z-score": 1.45}
{"chainSequence": "CTTGCTAGGTCATGGTCAGCTAATCTACAGTATG", "PBM binding z-score": 3.05}
{"chainSequence": "CCAGACAGGTGAACGGTAACTCAGTCTGGTACGC", "PBM binding z-score": 0.882}
{"chainSequence": "CCGAGTAGGTTATGGGGCTTTCAGGCAACGGTGA", "PBM binding z-score": 1.69}
{"chainSequence": "CCTTACGGGTCACTGACGGGTTATAGCATTTGGA", "PBM binding z-score": 4.31}
{"chainSequence": "TGTCATAGTTCAAAGGTAACGTAAGTATCCACAC", "PBM binding z-score": 5.59}
{"chainSequence": "TTACCAAGGAGAAGGTCGTTGATCCCTCTGTAGA", "PBM binding z-score": 0.529}
{"chainSequence": "GCGACTGGGGCAAAGCAGGTTAGCATAAGGTTGG", "PBM binding z-score": 1.14}
{"chainSequence": "GCTATTAGCTGAAAGGGCAACCGAATGATTCTCG", "PBM binding z-score": 1.15}
{"chainSequence": "CATGCTAGGTCAATGGTCAGCTAAAGCAGCTCGC", "PBM binding z-score": 4.43}
{"chainSequence": "TCATATAGGTAAACAGATGAAAGTCCGTAAGTTA", "PBM binding z-score": 1.36}
{"chainSequence": "TTTCGGAGGACACGAAGGTCAGAGCTTTCCAGAG", "PBM binding z-score": 0.582}
{"chainSequence": "TCATATAGGTAAAGGTGATAGTCGAACGATATGA", "PBM binding z-score": 2.72}

====

Examples of sequences with documented PBM binding z-score follow.
System: RARg homodimer (NR concentration 270 nM)
Test: PBM binding z-score (relative to random genomic background probes); higher = stronger binding; sequences stand for … in GC…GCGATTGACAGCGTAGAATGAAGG
metricName: PBM binding z-score

{"chainSequence": "ATATGTAGGTTACATCCAGGTCATTCAGGCTATG", "targetOfAssay": "RARg homodimer (NR concentration 270 nM)", "metricName": "PBM binding z-score", "readoutValue": 2.4}
{"chainSequence": "GCGACTGGGGCATCAGCAGATTACCATAACTTAA", "targetOfAssay": "RARg homodimer (NR concentration 270 nM)", "metricName": "PBM binding z-score", "readoutValue": 0.481}
{"chainSequence": "CGAACTAGGTAATCCAGGACAGTGAATACATTGA", "targetOfAssay": "RARg homodimer (NR concentration 270 nM)", "metricName": "PBM binding z-score", "readoutValue": 0.29}
{"chainSequence": "ATATGTAGGTTAAGGGTCATTCCGGTTGGTTCGC", "targetOfAssay": "RARg homodimer (NR concentration 270 nM)", "metricName": "PBM binding z-score", "readoutValue": 3.26}
{"chainSequence": "CGTCAAAGTTCACGGTAACGTAACAGAAAGCAGC", "targetOfAssay": "RARg homodimer (NR concentration 270 nM)", "metricName": "PBM binding z-score", "readoutValue": 7.19}
{"chainSequence": "AGAATGATGTTATTAAGATCAGGGAATTGCGGTC", "targetOfAssay": "RARg homodimer (NR concentration 270 nM)", "metricName": "PBM binding z-score", "readoutValue": 0.00602}
